Each recorded value in this set is attributed to BindingDB's records for patent US11160797.

- TESTED_SYSTEM: Activin receptor type-1 [172-499,R206H] (Homo sapiens, UniProt Q04771, R206H)
- Construct: 172-499
- Sequence (Q04771 172-499 R206H): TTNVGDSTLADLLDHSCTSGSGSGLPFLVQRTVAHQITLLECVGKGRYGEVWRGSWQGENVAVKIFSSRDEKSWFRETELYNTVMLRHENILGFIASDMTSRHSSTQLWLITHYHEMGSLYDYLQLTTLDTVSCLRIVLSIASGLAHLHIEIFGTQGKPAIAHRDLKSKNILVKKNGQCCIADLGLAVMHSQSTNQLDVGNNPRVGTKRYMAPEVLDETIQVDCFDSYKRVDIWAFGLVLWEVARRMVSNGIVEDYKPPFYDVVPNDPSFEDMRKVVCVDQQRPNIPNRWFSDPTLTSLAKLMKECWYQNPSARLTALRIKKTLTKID
- ASSAY_NOTES: In Vitro Enzyme Inhibition Using a Biochemical Peptide Phosphorylation Assay- Caliper Assay
ENDPOINT_LABEL: IC50
Returns: string containing the numeric result and its unit.

Ask: Please indicate IC50 recorded for CC(C)CN1c2ccc(-c3cncc(-c4ccc(=O)n(C(C)C)c4)c3)cc2CS1(=O)=O
Result: 0.14 µM
